# key: entry, value: apparent KD of MS2 coat protein
System: MS2 coat protein
Measurement Protocol: apparent KD of MS2 coat protein; higher = weaker reporter binding
Condition Description: Eterna round: R107; input ligand: theophylline 2 mM
All answers are understood in nM, so give the number only.

Consider the sequence shown here: AGAGUCUAGUCGGCCGCCACUCAUGUCCAAAGGACAUGAGGAUCACCCAUGUACCUAAGGUACAUGAGGACCGGGACUGGACUCA [Omei Tryp B SS C v5] What is its recorded apparent KD of MS2 coat protein?
336

Another sequence to check: GGACUAACCAGAAGGAGCGACACGCAGAAACUGCUAAAUCCUCCGCACGAGGAUCACCCGUGUCAGGUAGGUCGCUGGUUAGUCG [ArgBX 28]
47.5

Another sequence to check: UUAAUUAUUGAAUCGUAUUGGUAUUAAGAACGAGGACCGGUACGGCCGCCACUCGUGAUAUACAUGAGGAUCACCCAUGUUAGCA [JR_Nu_SSTryptoA_Sub022]
18.1

Further cases:
Consider the sequence shown here: UCGCGAUAGAGAAGGAGCGUCAACACCACAGAACAUGAGGAUCACCCAUGUGUUACUUUUAGACAGGUAGGUCGCUCUAGCGCUU [JR_Nu_ExcArginiB_Sub028] What is its recorded apparent KD of MS2 coat protein?
16.4

Another sequence to check: UACAUGAGGAUCACCCAUGUGUAGAGGGAUACCAGUGACAGUAAGCGCCCUUGGCAGCCCGUGAACAAUGGGUGAGCUAAAUAGU [#18 Exclusion-TheophyllineA]
133
